Target: T1, human TfR extracellular domain with N-terminal His tag (human, UniProt P02786 89-760)
T1 construct: Biotinylated in some assays; also called huTfR; HuTfR
T1 sequence (P02786 89-760 G142S): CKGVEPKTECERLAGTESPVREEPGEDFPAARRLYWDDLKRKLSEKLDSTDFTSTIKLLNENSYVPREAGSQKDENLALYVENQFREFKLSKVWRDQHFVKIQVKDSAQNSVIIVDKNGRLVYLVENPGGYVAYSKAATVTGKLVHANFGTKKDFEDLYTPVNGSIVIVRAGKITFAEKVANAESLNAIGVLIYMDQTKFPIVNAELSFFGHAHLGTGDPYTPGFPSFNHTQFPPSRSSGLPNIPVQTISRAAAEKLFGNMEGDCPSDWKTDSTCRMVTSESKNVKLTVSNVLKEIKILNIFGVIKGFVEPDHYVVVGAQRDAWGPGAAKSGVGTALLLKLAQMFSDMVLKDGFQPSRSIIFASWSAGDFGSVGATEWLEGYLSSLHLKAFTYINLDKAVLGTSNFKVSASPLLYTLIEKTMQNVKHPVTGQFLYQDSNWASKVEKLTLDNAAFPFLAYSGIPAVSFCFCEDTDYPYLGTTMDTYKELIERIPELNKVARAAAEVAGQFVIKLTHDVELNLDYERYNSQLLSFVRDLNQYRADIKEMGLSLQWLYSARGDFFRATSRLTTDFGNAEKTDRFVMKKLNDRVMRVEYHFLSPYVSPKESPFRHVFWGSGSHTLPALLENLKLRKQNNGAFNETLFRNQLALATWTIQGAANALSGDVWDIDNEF
Test: SPR, IgG;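 also: His-tagged TfR captured via immobilized anti-His antibody on a CM5 chip, antibody injected in 3-fold dilution series by single cycle kinetics, 1:1 Langmuir or steady-state fit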
Kd strictly under 0.6 nM means class 1; at 0.6 nM or over means class 0.

Look over these answered cases.
hu7A4.v15 IgG (antibody, V domains shown, Human IgG; also called humanized 7A4.v15) VH: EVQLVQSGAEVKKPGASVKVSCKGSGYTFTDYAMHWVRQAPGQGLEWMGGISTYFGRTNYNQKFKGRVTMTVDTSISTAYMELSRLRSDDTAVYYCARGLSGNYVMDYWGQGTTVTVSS VL: DIVMTQSPDSLAVSLGERATINCRASESVDSYGNSFMHWYQQKPGQPPKLLIYRASNLESGVPDRFSGSGSRTDFTLTISSLQAEDVAVYYCQQSNEAPPTFGQGTKLEIK    class 1
hu7A4.v9 (antibody, V domains shown, IgG) VH: EVQLVQSGAEVKKPGASVKVSCKASGYTFTDYAMHWVRQAPGQGLEWMGGISTYFGRTNYNQKFKGRVTMTRDTSISTAYMELSRLRSDDTAVYYCARGLSGNYVMDYWGQGTTVTVSS VL: DIVMTQSPDSLAVSLGERATINCRASESVDSYGNSFMHWYQQKPGQPPKLLIYRASNLESGVPDRFSGSGSRTDFTLTISSLQAEDVAVYYCQQSNEGPPTFGQGTKLEIK    class 1
hu7A4.v12 (antibody, V domains shown, IgG) VH: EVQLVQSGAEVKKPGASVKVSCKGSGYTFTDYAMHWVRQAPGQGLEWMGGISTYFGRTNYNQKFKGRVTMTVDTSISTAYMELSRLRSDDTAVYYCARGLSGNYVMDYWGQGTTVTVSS VL: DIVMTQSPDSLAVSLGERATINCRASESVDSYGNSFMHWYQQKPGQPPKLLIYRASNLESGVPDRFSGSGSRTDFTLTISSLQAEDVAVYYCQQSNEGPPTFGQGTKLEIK    class 1
hu16F6.v3 (antibody, V domains shown, IgG; HC 71 V, 78 F) VH: EVQLVESGPGLVKPSETLSLTCTVSGNSITSEYAWNWIRQPPGKGLEWIGYISYSGTTSYNPSLKSRVTISVDTSKNQFSLKLSSVTAADTAVYYCARYGYGNPATRYFDVWGQGTLVTVSS VL: DIQMTQSPSSLSASVGDRVTITCRASKSISKYLAWYQQKPGKTNKLLLYSGSTLQSGVPSRFSGSGSGTDYTLTISSLQPEDFATYYCQQHNEYPWTFGQGTKVEIK    class 0

Task: Does the reported Kd of hu16F6.v1 (antibody, V domains shown, IgG; HC 71 V, 78 F) VH: EVQLVESGPGLVKPSETLSLTCTVSGNSITSEYAWNWIRQPPGKGLEWIGYISYSGTTSYNPSLKSRVTISVDTSKNQFSLKLSSVTAADTAVYYCARYGYGNPATRYFDVWGQGTLVTVSS VL: DIQMTQSPSSLSASVGDRVTITCRASKSISKYLAWYQQKPGKAPKLLLYSGSTLQSGVPSRFSGSGSGTDYTLTISSLQPEDFATYYCQQHNEYPWTFGQGTKVEIK stay below 0.6 nM?
Output: class 0
